As shown below, each of these binders has a reported pKd value.
# study.target: T1, RSV postfusion F (postF), subtype B (respiratory syncytial virus subtype B)
# T1 construct: also called Postfusion subtype B
# T1 sequence (P13843 26-109, chain 1 of 2): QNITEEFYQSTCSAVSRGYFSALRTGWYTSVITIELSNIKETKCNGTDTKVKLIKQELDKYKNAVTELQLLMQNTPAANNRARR
# T1 sequence (P13843 147-513, chain 2 of 2): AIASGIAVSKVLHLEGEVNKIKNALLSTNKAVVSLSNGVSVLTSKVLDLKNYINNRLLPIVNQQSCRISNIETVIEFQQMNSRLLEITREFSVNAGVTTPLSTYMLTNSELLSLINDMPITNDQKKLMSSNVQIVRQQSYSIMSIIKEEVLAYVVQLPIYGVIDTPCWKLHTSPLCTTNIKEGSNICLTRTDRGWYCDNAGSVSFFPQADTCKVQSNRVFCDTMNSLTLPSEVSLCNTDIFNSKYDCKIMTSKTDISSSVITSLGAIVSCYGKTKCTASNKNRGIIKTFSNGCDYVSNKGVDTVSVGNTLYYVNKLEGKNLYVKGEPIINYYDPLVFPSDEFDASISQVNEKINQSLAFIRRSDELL
# test: BLI, IgG
Expect pKd as a plain number equal to -log10 of the molar concentration.

Use these answered entries as a reference point.
[
  {
    "binder": "ADI-14365 (antibody, V domains shown, full-length IgG; also called Ab 33) VH: QVQLVQSGAEVKKPGASVKVSCKVSGYTLTKLSMHWVRQAPGKGLEWMGFFDPEDGDTLYAQKFQGRVTMTEDTSSDTPYMELRSLRSEDTAVYYCASPAAAGQFDYWGQGTLVTVSS VL: DIVMTQSPSSLSASVGDRVTITCRASQFISSYLHWYQQKTGKAPKLLIYAASSLQSGVPSRFSGSGSGTDFTLTISSLQPEDFATYYCQQSYNTPRTFGQGTKLEIK",
    "test.readout": "pKd",
    "val": 7.65
  },
  {
    "binder": "ADI-14355 (antibody, V domains shown, full-length IgG; also called Ab 23) VH: EVQLVESGPTLVKPTQTLTLTCTFSGFSLSTSGVGVGWIRQPPGKALEWLAVIYWDDDKTYSPSLKSRLTITKDTSKNQVVLTMTNMNPVDTATYYCARCPAPVYSYGVDVWGQGTTVTVSS VL: QSALTQPASVSGSPGQSITISCTATSSDFGGYDYVSWYQQHPGEAPKLMISDVTNRPSGVSNRFSGSKSGNTASLTISGLQAEDEADYYCSSYTSYTTPYVFGTGTKLTVL",
    "test.readout": "pKd",
    "val": 9.43
  }
]

Bench note: what pKd did ADI-19505 (antibody, V domains shown, full-length IgG) VH: QVQLVQSGAEVKKPGESLKISCKGSGYSFTNYWIGWVRQMPGKGLEWMGITYPGDSDTRYSPSFQGQVTISADKSISTAHLQWDSLKASDTAMYYCARLRCTGSICYDAFDIWGQGTTVTVSS VL: SYVLTQPLSVSVALGQTARITCGGNNIGSKNVHWYQQKPGQAPVLVIYRDNNRPSGIPERFSGSNSGNTATLTISRAQAGDEADYYCQVWDSSTGGDVFGAGTKVTVL show?
8.30
